Molecular target: Fes (UniProt P07332)
Sequence (P07332 whole entry, looked up): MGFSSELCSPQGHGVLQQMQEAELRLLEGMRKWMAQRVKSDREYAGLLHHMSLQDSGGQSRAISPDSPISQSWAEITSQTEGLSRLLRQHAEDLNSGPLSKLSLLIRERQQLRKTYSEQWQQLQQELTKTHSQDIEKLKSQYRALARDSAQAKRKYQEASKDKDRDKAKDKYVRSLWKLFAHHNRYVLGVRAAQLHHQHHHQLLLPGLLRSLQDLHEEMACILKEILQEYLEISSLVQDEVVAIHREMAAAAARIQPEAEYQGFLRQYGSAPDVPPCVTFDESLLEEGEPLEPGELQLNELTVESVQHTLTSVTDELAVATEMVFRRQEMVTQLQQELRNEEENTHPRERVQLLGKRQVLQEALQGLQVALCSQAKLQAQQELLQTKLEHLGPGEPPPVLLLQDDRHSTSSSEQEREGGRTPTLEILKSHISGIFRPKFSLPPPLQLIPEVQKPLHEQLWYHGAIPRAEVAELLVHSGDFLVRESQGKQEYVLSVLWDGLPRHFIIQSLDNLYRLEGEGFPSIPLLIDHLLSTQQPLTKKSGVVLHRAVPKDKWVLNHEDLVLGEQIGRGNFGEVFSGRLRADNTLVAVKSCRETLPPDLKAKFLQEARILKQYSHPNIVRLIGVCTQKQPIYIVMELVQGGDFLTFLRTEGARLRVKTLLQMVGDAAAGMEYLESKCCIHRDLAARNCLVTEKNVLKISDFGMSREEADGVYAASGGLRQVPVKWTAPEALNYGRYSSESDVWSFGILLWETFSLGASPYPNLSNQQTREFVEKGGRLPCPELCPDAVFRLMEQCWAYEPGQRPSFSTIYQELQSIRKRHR
Assay: phosphorylation enrichment, bacterial display (enrichment ratio); higher = better substrate or ligand; peptides without Tyr show the background;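 note: 11-residue human phosphosite peptides and single-mutation variants displayed on the E. coli surface, counted by deep sequencing, each peptide's frequency after selection divided by its frequency in the unselected input library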;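 note: frequency after pTyr selection over input frequency; kinase dosed for 20-30% of maximal phosphorylation in three min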
Binary classification by phosphorylation enrichment, with 1 as an inclusive lower bound for yes (1); all other cases are no (0).

Worked examples follow.
* RSDEDYLFREE [POR_Y573_YF] | yes (1)
* KSRQIYDAYIM [GRK3_Y109_R104K] | no (0)

# input for lookup
Request: Reported phosphorylation enrichment at or above 1? DAANNYARGHY [TUBA3E_Y103_S101N]
Result: no (0)

====

System: AncSZ
Test: phosphorylation enrichment, bacterial display (enrichment ratio); higher = better substrate or ligand; peptides without Tyr show the background
Recorded phosphorylation enrichment values for a group of sequences are listed next.
Just the number, please.

Request: May I ask what phosphorylation enrichment has been recorded for PPSGEYFGQCG [TRIP6_Y275] ?
Result: 1.58

Request: Look at this sequence and give its reported phosphorylation enrichment. LRNIDYFRLDG [ATRX_Y2083_YF]
Result: 3.71

Request: Consider the sequence EVDGLYREAPI [MYL12B_Y143_E141G] and give its measured phosphorylation enrichment.
Result: 0.879

Request: Recorded phosphorylation enrichment of QDIMAYRSREV [BCL6_Y157_G159S] , please.
Result: 0.569

Request: // lookup phosphorylation enrichment for SPPILYSFYLN [FCRL6_Y239_D244N]
Result: 1.21

Request: Consider the sequence shown here: SMEGLYSSAQD [CLIC5_Y111_T114A] What is its recorded phosphorylation enrichment?
Result: 1.51

Request: # input sequence: NACGLYYKLHN [GATA2_Y376] ; wanted: its phosphorylation enrichment
Result: 1.5

Request: Returns the measured phosphorylation enrichment for the input sequence. Input: SIKGKYVTALF [KCNH2_Y611_D609G_YF]
Result: 0.771
